Target: UGT1A9 (Homo sapiens)
Sequence (O60656 26-530): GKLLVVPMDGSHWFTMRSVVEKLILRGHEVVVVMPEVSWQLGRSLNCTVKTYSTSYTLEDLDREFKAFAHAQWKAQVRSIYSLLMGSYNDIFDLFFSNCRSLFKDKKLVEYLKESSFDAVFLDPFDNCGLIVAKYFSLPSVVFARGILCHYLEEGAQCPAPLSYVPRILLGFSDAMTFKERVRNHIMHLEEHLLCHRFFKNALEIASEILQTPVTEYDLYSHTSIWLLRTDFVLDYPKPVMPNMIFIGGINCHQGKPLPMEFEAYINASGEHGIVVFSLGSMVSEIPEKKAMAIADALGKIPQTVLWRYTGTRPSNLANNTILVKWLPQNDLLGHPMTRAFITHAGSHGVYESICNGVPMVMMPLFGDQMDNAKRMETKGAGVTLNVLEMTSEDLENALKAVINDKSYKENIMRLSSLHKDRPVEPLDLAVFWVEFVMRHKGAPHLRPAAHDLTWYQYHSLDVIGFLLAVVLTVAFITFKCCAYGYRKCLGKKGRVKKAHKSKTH
Test: UGT1A9 supersomes-catalyzed 4-MU glucuronidation inhibition
Details: 50 μM PC components; recombinant human UGT; mean of triplicate
measured.parameter: residual activity 1A9 (%)

a = CCCCCCCCCCCCCCCC(=O)OC[C@H](COP(=O)([O-])OCC[N+](C)(C)C)OC(=O)CCCCCCCCCCCCCCC [PC 16:0, 16:0]
b = CCCCCCCCCCCCCCCCCCCCCC(=O)OC[C@H](COP(=O)([O-])OCC[N+](C)(C)C)OC(=O)CCCCCCCCCCCCCCCCCCCCC [PC 22:0, 22:0]
Smaller residual activity 1A9 value, a vs b ? Refer to your chosen entry by its label in the reply.
b
(b: 43.9%, a: 67.5%)
